Numbers sourced from ChEMBL document CHEMBL2094260.

Test system: Mycobacterium tuberculosis
Test method notes: MMV: Screen against Mtb, single point, non replicating, at 25uM
Assay type: functional
Attribute measured: inhibition at 25 µM

1. Cc1ccc(-c2cc3c(SCC(=O)Nc4cc(C(F)(F)F)ccc4Cl)nccn3n2)cc1
8.19%
2. O=C(NCc1ccco1)C1CCN(S(=O)(=O)c2ccc(Br)cc2)CC1
10.5%
3. N#Cc1nc(Cc2cccc3ccccc23)oc1N1CCN(C(c2ccccc2)c2ccccc2)CC1
18.9%
4. CCCOCc1cc(CN2CCN(c3cccc(Cl)c3)CC2)c(O)c2ncccc12
1.85%
5. CC(Oc1ccc(NC(=O)c2cccs2)cc1)C(=O)c1ccc(Cl)cc1 (stereo not given)
-0.638%

Give its inhibition at 25 µM value. Item: `c1ccc2cc3c(Nc4ccc(N5CCOCC5)cc4)ccnc3cc2c1`
0.164%

Give its inhibition at 25 µM value. Item: `CCOC(=O)c1cn(CC)c2cc(N3CCCCC3)c(F)cc2c1=O`
6.27%

Give its inhibition at 25 µM value. Item: CC1CC(C)CN(C(=O)c2ccc(Cl)cc2Cl)C1 (stereo not given)
9.59%

Give its inhibition at 25 µM value. Item: `Cc1ccc(Cn2c(N3CCC(C(=O)NCc4cccs4)CC3)nc3ccccc32)cc1`
5.22%

Give its inhibition at 25 µM value. Item: `O=C(Nc1ccc(Cl)cc1C(=O)Nc1ccncc1)c1ccc(Cl)cc1Cl`
27.7%

====

Test system: Mycobacterium tuberculosis
Test method notes: MMV: Screen against Mtb, single point, non replicating, at 25uM
Format: functional
Attribute measured: inhibition at 25 µM
Please give the number followed by its unit.

1. C=CC12CCN(CC1)C(C(O)c1ccnc3ccc(OC)cc13)C2 (stereo unspecified)
18.8%

Give its inhibition at 25 µM value. Item: `Nc1nc(Nc2cccc(F)c2)nc2ccccc12`
9.12%

Give its inhibition at 25 µM value. Item: `Cc1cc(N2CCCC2)nc(Nc2ccc(NC(=O)CCc3ccccc3)cc2)n1`
9.94%

Give its inhibition at 25 µM value. Item: CCOc1cc2c(cc1OCC)C(c1cc(Cl)c(O)c(OCC)c1)NCC2 (stereo unspecified)
-14%

Give its inhibition at 25 µM value. Item: `COc1ccc(-c2cc3c(nn2)-c2ccccc2C3=O)cc1`
26.7%

Give its inhibition at 25 µM value. Item: `COc1ccc(C(=O)Nc2ccc(Cl)cc2C(=O)Nc2ccncc2)cc1`
30.9%

Give its inhibition at 25 µM value. Item: `Cc1cc(N(C)C)nc(Nc2ccc(NC(=O)Nc3ccccc3)cc2)n1`
3.62%

Give its inhibition at 25 µM value. Item: `O=C(CCc1ccco1)NC1CCN(CC2(c3ccc(Cl)cc3)CCC2)CC1`
20.8%

Give its inhibition at 25 µM value. Item: COc1ccc(N2CCN(C(CNC(=O)CC(C)(C)C)c3ccc4c(c3)OCO4)CC2)cc1 (stereo unspecified)
-8.45%

Give its inhibition at 25 µM value. Item: `CCC(=O)Nc1nnc(Cc2ccc(OC)c(OC)c2)s1`
1.56%

Give its inhibition at 25 µM value. Item: `Oc1ccccc1CN1CCN(C(c2ccccc2)c2ccccc2)CC1`
28.8%

Give its inhibition at 25 µM value. Item: Cc1cc(NC(=O)C2c3ccccc3C(=O)N(CC(C)C)C2c2cccs2)no1 (stereo unspecified)
13.1%

Give its inhibition at 25 µM value. Item: `COc1ccccc1C(=O)ON=C(N)Cc1cccc2ccccc12`
32.7%

Give its inhibition at 25 µM value. Item: OC(CNCc1ccccc1)Cn1c2ccccc2c2ccccc21 (stereo unspecified)
14.3%

Give its inhibition at 25 µM value. Item: `CCOC(=O)c1cnc2ccc(Cl)cc2c1NCCCN(C)C`
-0.993%

Give its inhibition at 25 µM value. Item: O=C1CC(O)(C(F)(F)C(F)(F)F)Oc2ccccc21 (stereo unspecified)
39.1%

Give its inhibition at 25 µM value. Item: `CCCCN(CCCC)S(=O)(=O)c1ccc(NC(=O)c2ccco2)cc1`
6.97%

Give its inhibition at 25 µM value. Item: CCOc1cc2c(cc1OCC)C(c1cc(Cl)ccc1O)NCC2 (stereo unspecified)
-6.67%

Give its inhibition at 25 µM value. Item: `Cc1ccc(-c2nc3ccccc3o2)cc1NCc1cc(Cc2ccccc2)ccc1O`
10.4%

Give its inhibition at 25 µM value. Item: `CCN1CCN(Cc2ccc(NC(=O)c3cc4ccc5cccnc5c4[nH]3)cc2)CC1`
3.13%

Give its inhibition at 25 µM value. Item: `CCOC(=O)c1c(C)n(-c2ccc(Cl)cc2)c2ccc(OC(=O)C=Cc3ccccc3)cc12`
18.8%

Give its inhibition at 25 µM value. Item: `FC(F)(F)c1cccc(Nc2nc3ccccc3nc2Nc2cccc(C(F)(F)F)c2)c1`
102%

Give its inhibition at 25 µM value. Item: `CCOc1c(Br)cc(C2C(C(=O)OC)=CN(C)C=C2C(=O)OC)cc1OC`
14.1%

Give its inhibition at 25 µM value. Item: `Oc1ccccc1CNCC12CC3CC(CC(C3)C1)C2`
18.7%

Give its inhibition at 25 µM value. Item: CCOc1c(Cl)cc(CNCC(O)c2ccccc2)cc1OC (stereo unspecified)
6.97%

Give its inhibition at 25 µM value. Item: `CC(C)=CCN1CCC(C(=O)Nc2ccc(-c3nc4ccccc4[nH]3)cc2)CC1`
17.3%

Give its inhibition at 25 µM value. Item: `Cc1cccc(-n2ncc3c(O)nc(-n4nc(C)cc4NC(=O)c4cc5ccccc5o4)nc32)c1`
48.2%

====

inhibition at 25 µM listing for selected compounds.
Tested on: Mycobacterium tuberculosis
Test method notes: MMV: Screen against Mtb, single point, non replicating, at 25uM
Type: functional
Unit % implied. Number only.

1. O=C(Nc1cccc(-c2nc3ccccc3[nH]2)c1)c1cccc(NC(=O)c2ccco2)c1
46.1
2. CCCCCCOC(=O)C1=C(C)NC(=O)NC1c1ccccc1F (stereo unspecified)
6.8
3. O=[N+]([O-])c1ccc(C=NNc2nc3ccccc3[nH]2)cc1
16.2

Kindly state the measured inhibition at 25 µM obtained for `CCOc1ccc(/C=C/c2nc(=O)c3ccccc3o2)cc1` with Mycobacterium tuberculosis.
12

Kindly state the measured inhibition at 25 µM obtained for O=C(Cc1ccccc1)NC(c1ccc(Cl)cc1)c1c(O)ccc2ccccc12 (stereo unspecified) with Mycobacterium tuberculosis.
-0.46

====

System: Mycobacterium tuberculosis
Test method notes: MMV: CRC and MIC90 against Mtb (replicating)
Assay type: functional
MIC90 listing for selected compounds.
Unit µM implied. Number only.

Below, each entry is followed by its recorded MIC90 result.
1) CC(C)CCNCC(O)Cn1c2ccccc2c2ccccc21 (stereo unspecified)
22.9
2) Cc1cc(C)c2nc(N3CCC(C(=O)NCCCN4CCC(N5CCCCC5)CC4)CC3)sc2c1
60.8
3) Cc1ccc(Nc2nc(NCCO)c3ccccc3n2)cc1C
9.52
4) Nc1ccc(-c2nc3cc(Oc4ccc(Oc5ccc6[nH]c(-c7ccc(N)cc7)nc6c5)cc4)ccc3[nH]2)cc1
19.2
5) Brc1ccc(Nc2nc3ccccc3nc2Nc2ccc(Br)cc2)cc1
3.73
6) CC(C)(C)CC(C)(C)NCC(O)COc1ccc(Cl)cc1Cl (stereo unspecified)
4.47
7) Cc1ccc(NC(=O)Nc2cccc(Cl)c2)cc1F
28.8
8) O=C1c2ccc3c4c(ccc(c24)C(=O)N1CCCCO)C(=O)N(CCCCO)C3=O
36.5

Give its MIC90 value. Item: `CC1CCN(Cc2ccc(NC(=O)c3cc4ccc5cccnc5c4[nH]3)cc2)CC1`
33.3

Give its MIC90 value. Item: `O=C(Nc1cccc(C(F)(F)F)c1)c1cc(Cl)ccc1O`
3.87

Give its MIC90 value. Item: `C[n+]1c2ccccc2nc2ccc(NCCO)cc21`
6

Give its MIC90 value. Item: `FC(F)(F)c1cccc(Nc2nc3ccccc3nc2Nc2cccc(C(F)(F)F)c2)c1`
3.33

Give its MIC90 value. Item: `Cc1cc(N2CCCC2)nc(Nc2ccc(NC(=O)CCc3ccccc3)cc2)n1`
14

Give its MIC90 value. Item: `Cc1ccc(Cl)cc1N1CCN(CCCNC(=O)C2CCN(c3nc4ccccc4[nH]3)CC2)CC1`
39

Give its MIC90 value. Item: `O=C(Nc1ccc(Cl)c(Cl)c1)Nc1ccc(Cl)c(Cl)c1`
3.89

Give its MIC90 value. Item: `O=C(Nc1ccc(F)c(Cl)c1)Nc1ccc(Cl)c(Cl)c1`
4.03

====

Test system: Mycobacterium tuberculosis
Test method notes: MMV: Screen against Mtb, single point, non replicating, at 25uM
Assay type: functional
Attribute measured: inhibition at 25 µM (%)
Unit % implied. Number only.

Below, each entry is followed by its recorded inhibition at 25 µM result.
1. CC(C)(C)c1ccc2c(c1)CN(Cc1ccc(Cl)cc1)CO2
41.2
2. CN1c2ccccc2N(C)C1c1ccc2c(c1)OCO2
14.5
3. CCOC(=O)c1cnc2ccc(OC)cc2c1Nc1ccc(N2CCN(C)CC2)cc1
31.3
4. N=c1c2ccccc2nnn1-c1cccc(C(F)(F)F)c1
-4.19
5. CCc1ccc(Nc2cc(C)c3ccc(O)cc3n2)cc1
17.3

Give its inhibition at 25 µM value. Item: CSC1=NC(=Nc2c(C)cccc2C)C2(CCC(C(C)(C)C)CC2)N1c1ccc(Cl)cc1 (centres undefined)
9.94

Give its inhibition at 25 µM value. Item: `CCOc1ccc2nc(C)cc(Nc3ccc(N(C)C)cc3)c2c1`
15.7

Give its inhibition at 25 µM value. Item: `CCOC(=O)c1cnc2ccc(CC)cc2c1O`
7.14

Give its inhibition at 25 µM value. Item: `Cc1cc(Nc2ccc(Cl)cc2)n2nc(C(F)(F)F)nc2n1`
10.3

Give its inhibition at 25 µM value. Item: `O=C(Nc1ccc(-c2nc3cc(NC(=O)c4ccc(Cl)cc4)ccc3[nH]2)cc1)c1ccc(Cl)cc1`
17.6

Give its inhibition at 25 µM value. Item: `CCn1c(CN2CCN(Cc3ccccc3)CC2)nc2cc(NC(=O)c3cccs3)ccc21`
15.2
